# subject of test: T1, CTLA4 on the cells of the reporter gene bioassay (human, UniProt P16410 36-223)
# T1 sequence (looked up): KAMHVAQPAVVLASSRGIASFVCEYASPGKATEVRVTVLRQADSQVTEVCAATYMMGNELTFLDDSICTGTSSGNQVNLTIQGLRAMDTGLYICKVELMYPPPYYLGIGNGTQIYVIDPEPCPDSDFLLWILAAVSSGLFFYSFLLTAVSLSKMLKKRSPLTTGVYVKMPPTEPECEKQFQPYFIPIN
# method description: cell-based or functional assay
measured metric: Relative Potency (%)

[[record]]
binder = "Heat-stressed Tremelimumab (40° C.), month 3 (oxidation study) (antibody, human IgG2, kappa, V domains shown, oxidation by peptide mapping: Trp-52 4.5%, Met-256 2.5%, Met-362 3.1%, Met-401 4.3%, Met-432 2.7%) VH: QVQLVESGGGVVQPGRSLRLSCAASGFTFSSYGMHWVRQAPGKGLEWVAVIWYDGSNKYYADSVKGRFTISRDNSKNTLYLQMNSLRAEDTAVYYCARDPRGATLYYYYYGMDVWGQGTTVTVSS VL: DIQMTQSPSSLSASVGDRVTITCRASQSINSYLDWYQQKPGKAPKLLIYAASSLQSGVPSRFSGSGSGTDFTLTISSLQPEDFATYYCQQYYSTPFTFGPGTKVEIKR"
recorded_value = 98

